# Tested on: barnyardgrass (Echinochloa crus-galli)
# test: Test A preemergence
# Format: in vivo
# measurement_context: Echinochloa crus-galli, pre-emergence, 240 h, 125 g ai/ha, preemergence; 0 to 100 scale where 0 is no effect and 100 is complete control; read-out: Barnyardgrass plant response rating
Some compounds, each annotated with its measured pest or weed control at 125 g/ha.
The reply should contain only the number, in %.

Q. Report pest or weed control at 125 g/ha, nothing else, for this compound: CN1C[C@H](c2ccc(C(F)(F)F)cc2)[C@@H](C(=O)Nc2ccc(F)cc2Br)C1=O [Compound 934]
A. 70

Q. Report pest or weed control at 125 g/ha, nothing else, for this compound: O=C1NC[C@H](c2ccc(F)c(OC(F)(F)C(F)(F)Br)c2)[C@H]1C(=O)Nc1cccc(F)c1F (racemic) [Compound 914]
A. 70

Q. Report pest or weed control at 125 g/ha, nothing else, for this compound: CN1CC[C@H](c2cccc(C(F)(F)F)c2)[C@@H](C(=O)Nc2ccccc2S(C)(=O)=O)C1=O [Compound 920]
A. 70

* * *

Some compounds, each annotated with its measured Plant response rating, Barnyardgrass.
# System: barnyardgrass (Echinochloa crus-galli)
# test: Test B flooded paddy test
# Format: in vivo
# measurement_context: Flood, 250 g ai/ha; 0 to 100 scale where 0 is no effect and 100 is complete control; 13 to 15 d
Please reply with the number alone, leaving off any unit.

Field: example entries. Status: answers known.
1. CN1CC(c2cccc(OC(F)(F)C(F)F)c2)C(C(=O)Nc2ccc(F)cc2F)C1=O (stereo not drawn) [Compound 393]: 65
2. O=C(Nc1cccc(F)c1F)C1C(=O)N(c2ccccc2)CC1c1cccc(C(F)(F)F)c1 (stereo not drawn) [Compound 457]: 0
3. CC(C)Oc1cccc(C2CNC(=O)C2C(=O)Nc2ccccc2F)c1 (stereo not drawn) [Compound 552]: 60
4. O=C1NCC(c2cccc(O)c2)C1C(=O)Nc1ccccc1F (racemic) [Compound 714]: 0
5. CN1CC(c2c(F)cccc2F)C(C(=O)Nc2cccc(F)c2F)C1=O (stereo not drawn) [Compound 547]: 0

From here, focus on the item given below.
Q. Report Plant response rating, Barnyardgrass, nothing else, for this compound: Cc1ccc(C2CNC(=O)C2C(=O)Nc2cccc(F)c2F)cc1F (racemic) [Compound 369]
A. 20

* * *

Some compounds, each annotated with its measured Plant response rating, Wheat.
# System: wheat (winter wheat, Triticum aestivum)
# test: Test C preemergence
# Type: in vivo
# measurement_context: 62 g ai/ha, scale 0 to 100, 0 no effect, 100 complete control
# Text: […]
Please reply with the number alone, leaving off any unit.

Field: example entries. Status: answers known.
1) Cc1ccc(C2CN(C)C(=O)C2C(=O)Nc2cccc(F)c2F)cc1F (stereo not drawn): 50
2) CN1C[C@H](c2ccc(F)c(F)c2)[C@@H](C(=O)Nc2cccc(F)c2F)C1=O: 65

Q. Report Plant response rating, Wheat, nothing else, for this compound: CN1CC(c2ccc(C(C)(F)F)cc2)C(C(=O)Nc2ccccc2F)C1=O (stereo not drawn)
A. 60

* * *

Some molecules, each annotated with its measured pest or weed control at 125 g/ha.
# System: ryegrass, Italian (Italian ryegrass, Lolium multiflorum)
# test: Test A preemergence
# Type: in vivo
# measurement_context: Lolium multiflorum, pre-emergence, 240 h, 125 g ai/ha, preemergence; 0 to 100 scale where 0 is no effect and 100 is complete control; read-out: Ryegrass, Italian plant response rating
The reply should contain only the number, in %.

Q. Report pest or weed control at 125 g/ha, nothing else, for this molecule: CN1C[C@H](c2ccc(C(F)(F)F)cc2)[C@@H](C(=O)Nc2ccccc2[S+](C)[O-])C1=O (stereo partly drawn)
A. 40

Q. Report pest or weed control at 125 g/ha, nothing else, for this molecule: Cc1c(F)cccc1NC(=O)[C@H]1C(=O)N(C)C[C@@H]1c1cccc(COC(F)F)c1
A. 40

Q. Report pest or weed control at 125 g/ha, nothing else, for this molecule: Cc1cc(F)cc([C@H]2CNC(=O)[C@@H]2C(=O)Nc2ccc(F)c(F)c2F)c1
A. 40
